src = the supplement of paper PMC8728848

Assay system: Neu5Ac(a2-3)Gal(b1-4)GlcNAc(b1-2)Man(a1-3)[Neu5Ac(a2-6)Gal(b1-4)GlcNAc(b1-2)Man(a1-6)]Man(b1-4)GlcNAc(b1-4)GlcNAc
Assay details: glycan array binding signal (z-score within array); higher = stronger binding
Experimental conditions: glycan notation: IUPAC condensed, linker removed
Shown is part of a subset that was picked to be rich in the strongest signals.
Recorded glycan array binding signal (z-score) for the following binders
Just the number, please.

Consider the reported glycan array binding signal (z-score) for these binders:
[
  {
    "Binder": "Langerin CRD (Homo sapiens), Q9UJ71 (protein) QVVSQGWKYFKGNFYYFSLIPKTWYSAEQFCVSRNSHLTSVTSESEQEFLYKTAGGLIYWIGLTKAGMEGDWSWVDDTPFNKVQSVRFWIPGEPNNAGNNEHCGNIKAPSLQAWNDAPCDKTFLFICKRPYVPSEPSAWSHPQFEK",
    "glycan array binding signal (z-score)": -0.647
  },
  {
    "Binder": "DC-ASGPR S+GEE (Homo sapiens) (protein) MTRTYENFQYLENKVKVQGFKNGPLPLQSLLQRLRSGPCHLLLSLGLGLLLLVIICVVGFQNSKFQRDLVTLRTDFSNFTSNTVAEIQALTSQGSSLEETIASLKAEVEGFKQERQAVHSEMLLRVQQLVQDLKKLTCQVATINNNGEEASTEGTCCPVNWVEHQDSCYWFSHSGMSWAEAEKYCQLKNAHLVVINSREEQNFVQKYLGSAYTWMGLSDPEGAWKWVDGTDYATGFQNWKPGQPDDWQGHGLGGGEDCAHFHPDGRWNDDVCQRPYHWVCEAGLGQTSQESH",
    "glycan array binding signal (z-score)": -0.297
  }
]

Moving on to the next binder.
Name the reported glycan array binding signal (z-score) value associated with the binder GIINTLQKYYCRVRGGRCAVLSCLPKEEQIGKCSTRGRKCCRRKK [Beta-Defensin 3 (Homo sapiens), P81534]
-0.484
